Tested on: HS 578T breast
Assay: NCI-60 one-dose screen, 48 h
Details: 10 µM unless noted
The panel holds about 83,000 compounds, 20% with a hit somewhere; the sample as a whole holds those more often. Active and inactive are the calls of the source. The calls were made as follows: active = growth percent below 10; inactive = the rest.
Response enum: t (active), f (inactive)

Prompt: What is the recorded call for this molecule in the test? C=CC(=O)NC(O)C(Cl)(Cl)Cl (centres undefined)
Response: f

Prompt: What is the recorded call for this molecule in the test? "O=C(CF)N(O)c1ccc(/C=C/c2ccccc2)cc1"
Response: f

Prompt: What is the recorded call for this molecule in the test? COc1ccc(C2=NN(c3ccccc3)C(c3sc(N(CCCl)CCCl)nc3Cl)C2)cc1 (centres undefined)
Response: f

Prompt: What is the recorded call for this molecule in the test? "CNC(=O)Oc1ccccc1-c1ccccc1"
Response: f

Prompt: What is the recorded call for this molecule in the test? CC1(CF)NC(=O)NC1=O (centres undefined)
Response: f

Prompt: What is the recorded call for this molecule in the test? "CCOC(=O)Nc1cc(Cl)c([N+](=O)[O-])c(NC(=O)OCC)n1"
Response: f

Prompt: What is the recorded call for this molecule in the test? "C=CCC1(CC)C(=O)NC(=S)NC1=O"
Response: f

Prompt: What is the recorded call for this molecule in the test? "O=S(=O)(F)c1ncnc2nc[nH]c12"
Response: f

Prompt: What is the recorded call for this molecule in the test? "COc1cc(C2(C#N)CCN(C)CC2)cc(OC)c1OC"
Response: f

Prompt: What is the recorded call for this molecule in the test? "CCCC(C)(C)c1ccc2c(c1)OC(C)(C)[C@@H]1CC=C(C)C[C@@H]21"
Response: f

Prompt: What is the recorded call for this molecule in the test? "CC(C)OC(=S)[S-].[Au+].c1ccc([PH+](c2ccccc2)c2ccccc2)cc1"
Response: f

Prompt: What is the recorded call for this molecule in the test? Cc1ccc2oc(=O)c3c(c2c1)OC(N)=C(C#N)C3c1ccco1 (centres undefined)
Response: f

Prompt: What is the recorded call for this molecule in the test? "C[CH2][Pb]([CH2]C)([CH2]C)[O]C(=O)COc1ccccc1"
Response: t

Prompt: What is the recorded call for this molecule in the test? CC(CC(C#N)(c1ccccc1)c1ccccc1)N1CCOCC1 (centres undefined)
Response: f
